I'd appreciate it if you could supply Ki values for the items below.
Molecular target: hCA II (Homo sapiens)
Construct: gene CA2; recombinant, obtained in-house as reported earlier; cytosolic
Assay: stopped-flow CO2 hydration assay
Type: biochemical
Conditions: read-out: KI (nM)^a,b / hCA II
Please format your answer as a value with the unit trailing.

CCOC(=O)c1ccc(-c2ccc3c(c2)C(C)=NS(=O)(=O)O3)cc1 ... 8250 nM

# batch: return Ki for each of the 3 compounds below
1. CC1=NS(=O)(=O)Oc2cc(Cl)ccc21
2. COc1ccc2c(c1)OS(=O)(=O)N=C2C
3. CC1=NS(=O)(=O)Oc2cc(-c3ccccc3)ccc21

1: 1660 nM; 2: 559 nM; 3: 2360 nM

# batch: return Ki for each of the 2 compounds below
1. CC1=NS(=O)(=O)Oc2cc(-c3ccc(Cl)c(Cl)c3)ccc21
2. CC1=NS(=O)(=O)Oc2cc(F)ccc21

1. 10000 nM
2. 284 nM

# batch: return Ki for each of the 3 compounds below
1. CC1=NS(=O)(=O)Oc2ccc(-c3ccc(Cl)c(Cl)c3)cc21
2. CC1=NS(=O)(=O)Oc2cc(C)ccc21
3. CC1=NS(=O)(=O)Oc2ccc(C)cc21

1: 4530 nM; 2: 788 nM; 3: 457 nM

# batch: return Ki for each of the 2 compounds below
1. CC1=NS(=O)(=O)Oc2ccc(-c3ccccc3)cc21
2. CC1=NS(=O)(=O)Oc2cc(Br)ccc21

["936 nM", "11500 nM"]

# batch: return Ki for each of the 2 compounds below
1. COc1ccc(-c2ccc3c(c2)C(C)=NS(=O)(=O)O3)cc1
2. CC1=NS(=O)(=O)Oc2cc(-c3ccc(F)cc3)ccc21

7120 nM
5370 nM
